- tgt: T1, IL-18 receptors on HEK-Blue IL-18 reporter cells (UniProt Q13478 19-541; O95256 20-599, limits assumed)
- T1 sequence (looked up) 1: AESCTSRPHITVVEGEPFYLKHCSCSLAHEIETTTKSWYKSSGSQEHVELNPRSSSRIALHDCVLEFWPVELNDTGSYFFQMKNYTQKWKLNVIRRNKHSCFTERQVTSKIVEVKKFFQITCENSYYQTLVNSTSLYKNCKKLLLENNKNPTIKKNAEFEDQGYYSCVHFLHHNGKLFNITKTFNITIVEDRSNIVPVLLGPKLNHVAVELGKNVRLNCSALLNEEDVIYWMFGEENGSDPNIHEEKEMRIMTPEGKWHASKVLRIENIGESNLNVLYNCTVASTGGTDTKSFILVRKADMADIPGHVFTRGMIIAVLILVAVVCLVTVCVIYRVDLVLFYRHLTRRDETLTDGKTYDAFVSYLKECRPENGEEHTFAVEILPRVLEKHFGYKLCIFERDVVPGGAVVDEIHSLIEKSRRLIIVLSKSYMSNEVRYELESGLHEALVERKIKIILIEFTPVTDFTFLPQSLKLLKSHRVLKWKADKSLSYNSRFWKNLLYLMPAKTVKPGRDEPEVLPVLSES
- T1 sequence (looked up) 2: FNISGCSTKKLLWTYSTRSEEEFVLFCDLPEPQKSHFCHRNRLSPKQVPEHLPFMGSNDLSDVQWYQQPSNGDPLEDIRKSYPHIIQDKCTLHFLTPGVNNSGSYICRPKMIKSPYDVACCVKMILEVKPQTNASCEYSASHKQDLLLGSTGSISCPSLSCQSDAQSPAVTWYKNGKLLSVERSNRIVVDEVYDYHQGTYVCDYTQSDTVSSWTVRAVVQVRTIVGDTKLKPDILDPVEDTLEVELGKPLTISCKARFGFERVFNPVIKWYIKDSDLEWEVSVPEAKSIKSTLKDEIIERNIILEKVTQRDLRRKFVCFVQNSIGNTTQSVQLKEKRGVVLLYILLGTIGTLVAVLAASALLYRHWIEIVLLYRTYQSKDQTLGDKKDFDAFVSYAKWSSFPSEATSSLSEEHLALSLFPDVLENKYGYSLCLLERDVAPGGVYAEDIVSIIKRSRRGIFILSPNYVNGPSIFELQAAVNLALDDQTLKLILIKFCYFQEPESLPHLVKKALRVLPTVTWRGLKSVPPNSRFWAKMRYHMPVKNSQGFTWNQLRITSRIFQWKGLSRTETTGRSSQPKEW
- experiment summary: cell-based or functional assay; note: unit not given here
Quick reference: HEK-Blue activity, No BP, DF-100,000 of the listed items.
Answer as a number with no unit attached.

Below are worked cases with known answers.
binder: IL-18 variant K53D, S55T, H109I (ligand) YFGKLESKLSVIRNLNDQVLFIDQGNRPLFEDMTDSDMRDNAPRTIFIISMYDDTQPRGMAVTISVKSEKISTLSSENKIISFKEMNPPDNIKDTKSDIIFFQRSVPGIDNKMQFESSSYEGYFLASEKERDLFKLILKKEDELGDRSIMFTVQNED
measurement label: HEK-Blue activity, No BP, DF-100,000
assay result: 0.09
//
binder: IL-18 variant K53Y, S55V (ligand) YFGKLESKLSVIRNLNDQVLFIDQGNRPLFEDMTDSDMRDNAPRTIFIISMYYDVQPRGMAVTISVKSEKISTLSSENKIISFKEMNPPDNIKDTKSDIIFFQRSVPGHDNKMQFESSSYEGYFLASEKERDLFKLILKKEDELGDRSIMFTVQNED
measurement label: HEK-Blue activity, No BP, DF-100,000
assay result: 0.2
//
binder: IL-18 variant K53D, S55E (ligand) YFGKLESKLSVIRNLNDQVLFIDQGNRPLFEDMTDSDMRDNAPRTIFIISMYDDEQPRGMAVTISVKSEKISTLSSENKIISFKEMNPPDNIKDTKSDIIFFQRSVPGHDNKMQFESSSYEGYFLASEKERDLFKLILKKEDELGDRSIMFTVQNED
measurement label: HEK-Blue activity, No BP, DF-100,000
assay result: 0.09

Looking for the measured HEK-Blue activity, No BP, DF-100,000 of IL-18 variant K53H, S55Q (ligand) YFGKLESKLSVIRNLNDQVLFIDQGNRPLFEDMTDSDMRDNAPRTIFIISMYHDQQPRGMAVTISVKSEKISTLSSENKIISFKEMNPPDNIKDTKSDIIFFQRSVPGHDNKMQFESSSYEGYFLASEKERDLFKLILKKEDELGDRSIMFTVQNED , can you help?
0.1

Data request, read-out HEK-Blue activity, No BP, DF-100,000, for IL-18 variant K53H, S55H (ligand) YFGKLESKLSVIRNLNDQVLFIDQGNRPLFEDMTDSDMRDNAPRTIFIISMYHDHQPRGMAVTISVKSEKISTLSSENKIISFKEMNPPDNIKDTKSDIIFFQRSVPGHDNKMQFESSSYEGYFLASEKERDLFKLILKKEDELGDRSIMFTVQNED
0.1

Endpoint output: HEK-Blue activity, No BP, DF-100,000 of IL-18 variant K53H, S55I (ligand) YFGKLESKLSVIRNLNDQVLFIDQGNRPLFEDMTDSDMRDNAPRTIFIISMYHDIQPRGMAVTISVKSEKISTLSSENKIISFKEMNPPDNIKDTKSDIIFFQRSVPGHDNKMQFESSSYEGYFLASEKERDLFKLILKKEDELGDRSIMFTVQNED . Value?
0.1

Sample IL-18 variant K53H, S55M, Q56H (ligand) YFGKLESKLSVIRNLNDQVLFIDQGNRPLFEDMTDSDMRDNAPRTIFIISMYHDMHPRGMAVTISVKSEKISTLSSENKIISFKEMNPPDNIKDTKSDIIFFQRSVPGHDNKMQFESSSYEGYFLASEKERDLFKLILKKEDELGDRSIMFTVQNED — what was its HEK-Blue activity, No BP, DF-100,000?
0.09

Record request: HEK-Blue activity, No BP, DF-100,000 value, item IL-18 variant T34E, N41D, K53N, S55R (ligand) YFGKLESKLSVIRNLNDQVLFIDQGNRPLFEDMEDSDMRDDAPRTIFIISMYNDRQPRGMAVTISVKSEKISTLSSENKIISFKEMNPPDNIKDTKSDIIFFQRSVPGHDNKMQFESSSYEGYFLASEKERDLFKLILKKEDELGDRSIMFTVQNED
0.1

Give its HEK-Blue activity, No BP, DF-100,000 value. Item: IL-18 variant K53G, S55V, R104Y, H109N (ligand) YFGKLESKLSVIRNLNDQVLFIDQGNRPLFEDMTDSDMRDNAPRTIFIISMYGDVQPRGMAVTISVKSEKISTLSSENKIISFKEMNPPDNIKDTKSDIIFFQYSVPGNDNKMQFESSSYEGYFLASEKERDLFKLILKKEDELGDRSIMFTVQNED
0.12

Endpoint output: HEK-Blue activity, No BP, DF-100,000 of IL-18 variant T34N, S36N, D40E, N41G, K53S, S55Q, R104N, H109Y (ligand) YFGKLESKLSVIRNLNDQVLFIDQGNRPLFEDMNDNDMREGAPRTIFIISMYSDQQPRGMAVTISVKSEKISTLSSENKIISFKEMNPPDNIKDTKSDIIFFQNSVPGYDNKMQFESSSYEGYFLASEKERDLFKLILKKEDELGDRSIMFTVQNED . Value?
0.09
